// provenance: paper PMC12605013

target: Nluc-FZD6 (Homo sapiens); construct: expressed in transfected cells; host or cells: ΔSMO HEK293A or ΔFZD1–10 HEK293T cells (screen); ΔFZD1–10 HEK293T cells (concentration–response curves); test: BRET-based BODIPY-cyclopamine competition binding at Nluc-FZD6 in live HEK293 cells; conditions: 10 µM compound; BODIPY-cyclopamine 300 nM; BMG Labtech ClarioStar reader (complete tracer displacement: net BRET = -0.02736)
Sequence (O60353 19-706): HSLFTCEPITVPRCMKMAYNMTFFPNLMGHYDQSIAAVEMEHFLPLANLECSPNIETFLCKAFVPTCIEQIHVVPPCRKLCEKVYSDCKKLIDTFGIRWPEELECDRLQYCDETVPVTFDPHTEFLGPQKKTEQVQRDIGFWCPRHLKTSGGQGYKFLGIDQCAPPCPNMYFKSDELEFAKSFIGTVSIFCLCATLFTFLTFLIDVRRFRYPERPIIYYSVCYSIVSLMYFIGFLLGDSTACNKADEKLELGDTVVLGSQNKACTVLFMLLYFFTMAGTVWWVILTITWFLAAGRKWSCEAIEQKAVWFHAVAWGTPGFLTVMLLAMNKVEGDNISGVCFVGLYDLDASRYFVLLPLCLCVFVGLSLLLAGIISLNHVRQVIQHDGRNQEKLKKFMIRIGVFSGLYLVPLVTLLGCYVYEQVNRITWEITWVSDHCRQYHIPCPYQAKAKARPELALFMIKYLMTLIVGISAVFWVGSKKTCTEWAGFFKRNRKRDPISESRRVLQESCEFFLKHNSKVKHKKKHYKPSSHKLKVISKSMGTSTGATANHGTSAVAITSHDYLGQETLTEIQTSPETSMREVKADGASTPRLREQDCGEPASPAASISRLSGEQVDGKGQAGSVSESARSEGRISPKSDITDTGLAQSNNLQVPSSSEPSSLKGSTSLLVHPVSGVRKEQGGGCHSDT
quantity.measured: Displacement @ 10 µM compound (Nluc-FZD6) ΔBRET

[P] CN[C@H]1CC[C@H](N(Cc2cccc(-c3ccncc3)c2)C(=O)c2sc3ccccc3c2Cl)CC1.Cl.Cl
[Q] O=C(N[C@H]1CC[C@H](N(Cc2cccc(-c3ccncc3)c2)C(=O)c2sc3ccccc3c2Cl)CC1)c1ccco1
Response body: label of entry with the larger Displacement @ 10 µM compound (Nluc-FZD6) ΔBRET; valid values P , Q . Please respond with the label that marks your chosen entry.
P
(P: -0.0099, Q: -0.0207)
